src = paper PMC6171417

inhibition at 10 µM values, listed per item
Tested on: SK-OV-3
ASSAY INFO: cells
Set-up: species or system NCI human tumour cell line panel; NCI one-dose anti-proliferative screen, human tumour cell line panel, growth inhibition percent (GI%)
TEST CONDITIONS: Homo sapiens, SK-OV-3; growth inhibition (GI%), single dose
The response must be a number in % with no trailing unit.

SMILES REPRESENTATION | SYSTEM UNDER TEST | inhibition at 10 µM [%]
N#Cc1nnn(-c2ccc(S(N)(=O)=O)cc2)c1/N=C/c1ccc(Cl)cc1 | SK-OV-3 | 9.9
N#Cc1c(-c2ccc(Cl)cc2)nc2c(nnn2-c2ccc(S(N)(=O)=O)cc2)c1N | SK-OV-3 | 9.7
CCn1c(=S)[nH]c2c(nnn2-c2ccc(S(N)(=O)=O)cc2)c1=N | SK-OV-3 | 3.6
N#Cc1nnn(-c2ccc(S(N)(=O)=O)cc2)c1N | SK-OV-3 | 4.6
N#Cc1nnn(-c2ccc(S(N)(=O)=O)cc2)c1NS(=O)(=O)c1ccccc1 | SK-OV-3 | 15.1

Which inhibition at 10 µM is listed for "N#Cc1nnn(-c2ccc(S(N)(=O)=O)cc2)c1NCC(=O)c1ccccc1" ?
8.2

Which inhibition at 10 µM is listed for "Nc1nc(=S)[nH]c2c1nnn2-c1ccc(S(N)(=O)=O)cc1" ?
11.6

Which inhibition at 10 µM is listed for "CN(C)c1ccc(-c2nc3c(nnn3-c3ccc(S(N)(=O)=O)cc3)c(N)c2C#N)cc1" ?
12.3

###

Tested on: NCI-H226
ASSAY INFO: cells
Parameters: species or system NCI human tumour cell line panel; NCI one-dose anti-proliferative screen, human tumour cell line panel, growth inhibition percent (GI%)
TEST CONDITIONS: Homo sapiens, NCI-H226; growth inhibition (GI%), single dose
inhibition at 10 µM values, listed per item
The response must be a number in % with no trailing unit.

Which inhibition at 10 µM is listed for "N#Cc1nnn(-c2ccc(S(N)(=O)=O)cc2)c1/N=C/c1ccc(Cl)cc1" ?
4.8

###

System: MDA-MB-231/ATCC
ASSAY INFO: cells
Design: species or system NCI human tumour cell line panel; NCI one-dose anti-proliferative screen, human tumour cell line panel, growth inhibition percent (GI%)
TEST CONDITIONS: Homo sapiens, MDA-MB-231; growth inhibition (GI%), single dose
inhibition at 10 µM values, listed per item
The response must be a number in % with no trailing unit.

Below, each entry is followed by its recorded inhibition at 10 µM result.
SMILES REPRESENTATION | inhibition at 10 µM / %
Nc1nc(=S)[nH]c2c1nnn2-c1ccc(S(N)(=O)=O)cc1 | 14.8
N#Cc1nnn(-c2ccc(S(N)(=O)=O)cc2)c1NCC(=O)c1ccccc1 | 4.9
CN(C)c1ccc(-c2nc3c(nnn3-c3ccc(S(N)(=O)=O)cc3)c(N)c2C#N)cc1 | 18

Which inhibition at 10 µM is listed for "N#Cc1c(-c2ccc(Cl)cc2)nc2c(nnn2-c2ccc(S(N)(=O)=O)cc2)c1N" ?
24.2

###

SYSTEM UNDER TEST: hCA IX (Homo sapiens)
Construct: gene CA9; recombinant, obtained in-house as reported earlier
ASSAY INFO: stopped-flow CO2 hydrase assay
Format: biochemical
Source text: stopped-flow CO2 hydrase assay on hCA IX
Ki values, listed per item
Quick note: unit goes after the number.

Below, each entry is followed by its recorded Ki result.
COMPOUND | Ki
N#Cc1nnn(-c2ccc(S(N)(=O)=O)cc2)c1/N=C/c1ccccc1Cl [compound 8] | 1770 nM
N=c1c2nnn(-c3ccc(S(N)(=O)=O)cc3)c2[nH]c(=S)n1-c1ccc(S(=O)(=O)Nc2cnc3ccccc3n2)cc1 [compound 21] | 3810 nM
[N-]=[N+]=Nc1ccc(S(N)(=O)=O)cc1 [compound 2, 4-azido benzenesulfonamide] | 235 nM

Let us examine a further case.
Which Ki is listed for CN(C)c1ccc(/C=N/c2c(C#N)nnn2-c2ccc(S(N)(=O)=O)cc2)cc1 [compound 10] ?
451 nM

###

Tested on: UACC-62
ASSAY INFO: cells
Design: species or system NCI human tumour cell line panel; NCI one-dose anti-proliferative screen, human tumour cell line panel, growth inhibition percent (GI%)
TEST CONDITIONS: Homo sapiens, UACC-62; growth inhibition (GI%), single dose
Procedure: Ten of the newly synthesised 1,2,3-triazolo benzenesulfonamide derivatives were selected by NCI (Bethesda, MD) for evaluating their anti-proliferative activity. The selected compounds were subjected to a primary in vitro one-dose ([…]) anti-proliferative assay against 57 human tumour cell lines following the previously reported method[30] and their obtained growth inhibition percent (GI%) are presented in Table 2. […]
OUTCOME MEASURE: inhibition at 10 µM
Quick note: unit goes after the number.

Below, each entry is followed by its recorded inhibition at 10 µM result.
SMILES REPRESENTATION | inhibition at 10 µM
N#Cc1nnn(-c2ccc(S(N)(=O)=O)cc2)c1NCC(=O)c1ccccc1 | 4%
Nc1nc(=S)[nH]c2c1nnn2-c1ccc(S(N)(=O)=O)cc1 | 5.6%
N#Cc1nnn(-c2ccc(S(N)(=O)=O)cc2)c1/N=C/c1ccc(Cl)cc1 | 6%
CN(C)c1ccc(-c2nc3c(nnn3-c3ccc(S(N)(=O)=O)cc3)c(N)c2C#N)cc1 | 11.6%
N#Cc1c(-c2ccc(Cl)cc2)nc2c(nnn2-c2ccc(S(N)(=O)=O)cc2)c1N | 15.5%

Which inhibition at 10 µM is listed for "N#Cc1nnn(-c2ccc(S(N)(=O)=O)cc2)c1N" ?
5.5%

Which inhibition at 10 µM is listed for "N#Cc1nnn(-c2ccc(S(N)(=O)=O)cc2)c1NS(=O)(=O)c1ccccc1" ?
5.9%

Which inhibition at 10 µM is listed for "CCn1c(=S)[nH]c2c(nnn2-c2ccc(S(N)(=O)=O)cc2)c1=N" ?
4.3%

###

SYSTEM UNDER TEST: hCA IV (Homo sapiens)
Construct: gene CA4; recombinant, obtained in-house as reported earlier
Sequence (P22748 19-284): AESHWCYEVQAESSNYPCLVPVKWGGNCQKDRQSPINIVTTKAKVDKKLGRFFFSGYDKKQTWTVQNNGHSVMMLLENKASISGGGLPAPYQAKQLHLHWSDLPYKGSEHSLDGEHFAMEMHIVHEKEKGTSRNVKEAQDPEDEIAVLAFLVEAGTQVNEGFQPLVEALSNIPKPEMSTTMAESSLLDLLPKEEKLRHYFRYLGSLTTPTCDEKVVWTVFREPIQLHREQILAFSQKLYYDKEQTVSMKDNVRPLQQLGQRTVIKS
ASSAY INFO: stopped-flow CO2 hydrase assay
Type: biochemical
log10(Ki) values, listed per item
Hi team, quick reminder: these entries are log10 of Ki (nM).

Below, each entry is followed by its recorded log10(Ki) result.
SMILES REPRESENTATION | OUTCOME MEASURE | RECORDED NUMBER
N#Cc1nnn(-c2ccc(S(N)(=O)=O)cc2)c1NC(=O)CCl | log10(Ki) | 3.08
Nc1c(C2=NCCN2)nnn1-c1ccc(S(N)(=O)=O)cc1 | log10(Ki) | 3.50
CC(=O)CC(=O)Nc1c(C#N)nnn1-c1ccc(S(N)(=O)=O)cc1 | log10(Ki) | 2.67

Which log10(Ki) is listed for "Nc1nc(=S)[nH]c2c1nnn2-c1ccc(S(N)(=O)=O)cc1" ?
2.69

Which log10(Ki) is listed for "CN(C)c1ccc(/C=N/c2c(C#N)nnn2-c2ccc(S(N)(=O)=O)cc2)cc1" ?
3.53

###

Test system: SF-268
ASSAY INFO: cells
Parameters: species or system NCI human tumour cell line panel; NCI one-dose anti-proliferative screen, human tumour cell line panel, growth inhibition percent (GI%)
TEST CONDITIONS: Homo sapiens, SF-268; growth inhibition (GI%), single dose
Experimental: Ten of the newly synthesised 1,2,3-triazolo benzenesulfonamide derivatives were selected by NCI (Bethesda, MD) for evaluating their anti-proliferative activity. The selected compounds were subjected to a primary in vitro one-dose ([…]) anti-proliferative assay against 57 human tumour cell lines following the previously reported method[30] and their obtained growth inhibition percent (GI%) are presented in Table 2. […]
Mark MET for reported inhibition at 10 µM of 4% or greater; mark NOT MET for anything smaller.

COMPOUND | GROUP
Nc1nc(=S)[nH]c2c1nnn2-c1ccc(S(N)(=O)=O)cc1 [compound 18] | NOT MET
N#Cc1c(-c2ccc(Cl)cc2)nc2c(nnn2-c2ccc(S(N)(=O)=O)cc2)c1N [compound 16] | MET
N#Cc1nnn(-c2ccc(S(N)(=O)=O)cc2)c1N [compound 3, 3] | NOT MET

Textbook exercise: given the entry N#Cc1nnn(-c2ccc(S(N)(=O)=O)cc2)c1NCC(=O)c1ccccc1 [compound 7, 7] , state whether its inhibition at 10 µM is greater than or equal to 4%.
MET

###

System: HL-60(TB)
ASSAY INFO: cells
Design: species or system NCI human tumour cell line panel; NCI one-dose anti-proliferative screen, human tumour cell line panel, growth inhibition percent (GI%)
TEST CONDITIONS: Homo sapiens, HL-60; growth inhibition (GI%), single dose
Description: Ten of the newly synthesised 1,2,3-triazolo benzenesulfonamide derivatives were selected by NCI (Bethesda, MD) for evaluating their anti-proliferative activity. The selected compounds were subjected to a primary in vitro one-dose ([…]) anti-proliferative assay against 57 human tumour cell lines following the previously reported method[30] and their obtained growth inhibition percent (GI%) are presented in Table 2. […]
inhibition at 10 µM values, listed per item
The response must be a number in % with no trailing unit.

SMILES REPRESENTATION | UNIT SYMBOL | RECORDED NUMBER
Nc1nc(=S)[nH]c2c1nnn2-c1ccc(S(N)(=O)=O)cc1 | % | 26.1
N#Cc1nnn(-c2ccc(S(N)(=O)=O)cc2)c1/N=C/c1ccc(Cl)cc1 | % | 12.6
N#Cc1nnn(-c2ccc(S(N)(=O)=O)cc2)c1N | % | 6.5
N#Cc1nnn(-c2ccc(S(N)(=O)=O)cc2)c1NS(=O)(=O)c1ccccc1 | % | 10.7
CCn1c(=S)[nH]c2c(nnn2-c2ccc(S(N)(=O)=O)cc2)c1=N | % | 8.9
CN(C)c1ccc(-c2nc3c(nnn3-c3ccc(S(N)(=O)=O)cc3)c(N)c2C#N)cc1 | % | 12.5
N#Cc1c(-c2ccc(Cl)cc2)nc2c(nnn2-c2ccc(S(N)(=O)=O)cc2)c1N | % | 5.5

Which inhibition at 10 µM is listed for "N#Cc1nnn(-c2ccc(S(N)(=O)=O)cc2)c1NCC(=O)c1ccccc1" ?
11.6
